Please respond with reported switch fluorescence ratio for every item in the list.
Test system: ATP;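 also: ATP exposure 15 min at 22 °C before imaging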
Experiment: switch fluorescence ratio, 500 uM ATP over buffer (Cy3 cluster intensity, sum of 5 cycles each) (fold (ratio)); higher = stronger signal-on switching upon ATP binding; sequences stand for … in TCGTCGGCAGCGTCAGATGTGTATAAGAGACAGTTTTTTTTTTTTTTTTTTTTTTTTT…TC
Settings: aptamer strand: ATP DNA aptamer (quencher-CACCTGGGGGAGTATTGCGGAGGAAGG + anchor), 100 nM annealed; ATP concentration: 500 uM
Answer with a number only.

Notebook: pull reported switch fluorescence ratio for ATP, entry GCGGGTGGGA
1.02

Notebook: pull reported switch fluorescence ratio for ATP, entry CGGATATGCG
1.06

Notebook: pull reported switch fluorescence ratio for ATP, entry TCTACTGGGG
0.994

Notebook: pull reported switch fluorescence ratio for ATP, entry AGAACTAGGG
0.974

Notebook: pull reported switch fluorescence ratio for ATP, entry CCGGAAAAAG
1.02

Notebook: pull reported switch fluorescence ratio for ATP, entry AATATTTGTG
1.15

Notebook: pull reported switch fluorescence ratio for ATP, entry CAATTTGGGG
0.994

Notebook: pull reported switch fluorescence ratio for ATP, entry ACGGTAGGGT
1.12

Notebook: pull reported switch fluorescence ratio for ATP, entry ATATGAAGGA
0.993

Notebook: pull reported switch fluorescence ratio for ATP, entry GTTGAGGGTT
0.989

Notebook: pull reported switch fluorescence ratio for ATP, entry GAACGGCGGA
0.981

Notebook: pull reported switch fluorescence ratio for ATP, entry TGAAGGACCG
0.952

Notebook: pull reported switch fluorescence ratio for ATP, entry CGAGGGTTGG
1.02

Notebook: pull reported switch fluorescence ratio for ATP, entry GCCTGAGAGC
0.975

Notebook: pull reported switch fluorescence ratio for ATP, entry AAATTCGGTT
0.99

Notebook: pull reported switch fluorescence ratio for ATP, entry AAATACGTCT
1.09

Notebook: pull reported switch fluorescence ratio for ATP, entry TTTTTGCCAC
1

Notebook: pull reported switch fluorescence ratio for ATP, entry TTTTCTTTTA
1

Notebook: pull reported switch fluorescence ratio for ATP, entry TACGGCGTAC
1.08

Notebook: pull reported switch fluorescence ratio for ATP, entry TAGACGCTCA
1.11

Notebook: pull reported switch fluorescence ratio for ATP, entry TTGTAAGTGG
0.97

Notebook: pull reported switch fluorescence ratio for ATP, entry GGCTTTGTGG
0.992

Notebook: pull reported switch fluorescence ratio for ATP, entry GTGGACGTTT
1.02

Notebook: pull reported switch fluorescence ratio for ATP, entry TGCAATCGGT
1.22

Notebook: pull reported switch fluorescence ratio for ATP, entry TTGGTCCGGT
0.988

Notebook: pull reported switch fluorescence ratio for ATP, entry CCAGACAGGG
0.956

Notebook: pull reported switch fluorescence ratio for ATP, entry CGCTGTTGGT
1

Notebook: pull reported switch fluorescence ratio for ATP, entry TTTACCCCGC
1.63

Notebook: pull reported switch fluorescence ratio for ATP, entry TTGACCTGAG
1.08

Notebook: pull reported switch fluorescence ratio for ATP, entry TTTATTCTAT
1.02

Notebook: pull reported switch fluorescence ratio for ATP, entry ACGTGATTTG
1.04

Notebook: pull reported switch fluorescence ratio for ATP, entry ATGCTGACCT
1.01

Notebook: pull reported switch fluorescence ratio for ATP, entry TTAACGCAA
3.6

Notebook: pull reported switch fluorescence ratio for ATP, entry TATCGGTCGG
0.98

Notebook: pull reported switch fluorescence ratio for ATP, entry ACAGGGGTGT
1.09

Notebook: pull reported switch fluorescence ratio for ATP, entry GCTTAGGGTG
1.01

Notebook: pull reported switch fluorescence ratio for ATP, entry TTCGTCGGTA
1.09

Notebook: pull reported switch fluorescence ratio for ATP, entry GGGGTGACGG
1

Notebook: pull reported switch fluorescence ratio for ATP, entry GGGTTATTTC
1.02

Notebook: pull reported switch fluorescence ratio for ATP, entry AGTCATATAG
1.06

Notebook: pull reported switch fluorescence ratio for ATP, entry GCGGGGAACA
1

Notebook: pull reported switch fluorescence ratio for ATP, entry AAGGGGTCTG
0.979

Notebook: pull reported switch fluorescence ratio for ATP, entry TCGGGGCCTC
1.04

Notebook: pull reported switch fluorescence ratio for ATP, entry AGGCACGTCG
1.02

Notebook: pull reported switch fluorescence ratio for ATP, entry GATCTTAACA
1

Notebook: pull reported switch fluorescence ratio for ATP, entry TCGGCGAAAG
1.02

Notebook: pull reported switch fluorescence ratio for ATP, entry TTGGGCAGTG
1.02

Notebook: pull reported switch fluorescence ratio for ATP, entry TCCTTGTCTT
1.01

Notebook: pull reported switch fluorescence ratio for ATP, entry TGACGTTATC
1.18

Notebook: pull reported switch fluorescence ratio for ATP, entry ATCTCTGTAA
1.26

Notebook: pull reported switch fluorescence ratio for ATP, entry GTGTTTTTCC
1.41

Notebook: pull reported switch fluorescence ratio for ATP, entry CATGGGTGTG
0.993

Notebook: pull reported switch fluorescence ratio for ATP, entry AGGGTACTTG
1

Notebook: pull reported switch fluorescence ratio for ATP, entry ATCTGATATT
1.01

Notebook: pull reported switch fluorescence ratio for ATP, entry CGCAGGCTTG
1.04

Notebook: pull reported switch fluorescence ratio for ATP, entry CATAGGATGG
0.947

Notebook: pull reported switch fluorescence ratio for ATP, entry GAAGGACAGC
1.05

Notebook: pull reported switch fluorescence ratio for ATP, entry GCTTTTTGGC
1.03

Notebook: pull reported switch fluorescence ratio for ATP, entry TGGTGTTTT
0.998

Notebook: pull reported switch fluorescence ratio for ATP, entry TGGGTTCGTA
0.994

Notebook: pull reported switch fluorescence ratio for ATP, entry CTAAGGGGTT
0.991

Notebook: pull reported switch fluorescence ratio for ATP, entry AATAGGTTGG
0.994

Notebook: pull reported switch fluorescence ratio for ATP, entry TTGTGTTACG
0.996

Notebook: pull reported switch fluorescence ratio for ATP, entry ACTGGGGTGT
1.07

Notebook: pull reported switch fluorescence ratio for ATP, entry TATTTAGGGT
1.01

Notebook: pull reported switch fluorescence ratio for ATP, entry GCGGTTGGGG
1.01

Notebook: pull reported switch fluorescence ratio for ATP, entry TGCCACTCCT
1.05

Notebook: pull reported switch fluorescence ratio for ATP, entry GCTCGGTCGG
1.02

Notebook: pull reported switch fluorescence ratio for ATP, entry GGGTGCGCGT
0.977

Notebook: pull reported switch fluorescence ratio for ATP, entry ATAGAATGCG
0.995

Notebook: pull reported switch fluorescence ratio for ATP, entry ATTCGGTCAT
1

Notebook: pull reported switch fluorescence ratio for ATP, entry TTAGTACTGA
1.05

Notebook: pull reported switch fluorescence ratio for ATP, entry GTATGCTAAC
1

Notebook: pull reported switch fluorescence ratio for ATP, entry TATTAATTCT
0.972

Notebook: pull reported switch fluorescence ratio for ATP, entry GTTCGTCCTC
1.03

Notebook: pull reported switch fluorescence ratio for ATP, entry ATGTGTCTTT
0.979

Notebook: pull reported switch fluorescence ratio for ATP, entry ATCGTAGATT
0.993

Notebook: pull reported switch fluorescence ratio for ATP, entry TACAGGGCTC
1.05

Notebook: pull reported switch fluorescence ratio for ATP, entry CGATTAAATG
0.993

Notebook: pull reported switch fluorescence ratio for ATP, entry CTGCATGGGG
1.06

Notebook: pull reported switch fluorescence ratio for ATP, entry TTTTGACAGG
1.03

Notebook: pull reported switch fluorescence ratio for ATP, entry GTGATGGGGG
1.01

Notebook: pull reported switch fluorescence ratio for ATP, entry TGGTACGGTT
0.975

Notebook: pull reported switch fluorescence ratio for ATP, entry ACGTATCGGC
1.06

Notebook: pull reported switch fluorescence ratio for ATP, entry GAAGGGGCAG
0.97

Notebook: pull reported switch fluorescence ratio for ATP, entry CAGATTATGT
1.01

* * *

Please respond with reported switch fluorescence ratio for every item in the list.
System: ATP;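 also: ATP exposure 15 min at 22 °C before imaging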
Experiment: switch fluorescence ratio, 500 uM ATP over buffer (Cy3 cluster intensity, sum of 5 cycles each) (fold (ratio)); higher = stronger signal-on switching upon ATP binding; sequences stand for … in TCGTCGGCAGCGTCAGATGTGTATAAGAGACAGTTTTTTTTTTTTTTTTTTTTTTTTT…TC
Details: aptamer strand: ATP DNA aptamer (quencher-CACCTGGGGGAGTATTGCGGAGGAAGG + anchor), 100 nM annealed; ATP concentration: 500 uM
Answer with a number only.

Item GCCAGTTTGT has what recorded switch fluorescence ratio?
0.981

Item CTGGCGTTCG has what recorded switch fluorescence ratio?
0.983

Item TGTTCCGGGG has what recorded switch fluorescence ratio?
1.01

Item TCGGTGAGGG has what recorded switch fluorescence ratio?
1.02

Item TAGAAGACAG has what recorded switch fluorescence ratio?
0.996

Item AAACAGGAGT has what recorded switch fluorescence ratio?
1.01

Item GGTGGTAGTT has what recorded switch fluorescence ratio?
1.01

Item TAAGCAGCGA has what recorded switch fluorescence ratio?
1.04

Item AACGATTTTT has what recorded switch fluorescence ratio?
1.01

Item AAAAAGGGGG has what recorded switch fluorescence ratio?
1.02

* * *

System: ATP;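 also: ATP exposure 15 min at 22 °C before imaging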
Assay: switch fluorescence ratio, 500 uM ATP over buffer (Cy3 cluster intensity, sum of 5 cycles each) (fold (ratio)); higher = stronger signal-on switching upon ATP binding; sequences stand for … in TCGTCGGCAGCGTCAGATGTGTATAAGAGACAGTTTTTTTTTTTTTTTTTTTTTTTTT…TC
Details: aptamer strand: ATP DNA aptamer (quencher-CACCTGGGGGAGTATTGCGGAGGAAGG + anchor), 100 nM annealed; ATP concentration: 500 uM
measuredProperty: switch fluorescence ratio
Answer with a number only.

Item GGAATGGGGT has what recorded switch fluorescence ratio?
0.997

Item CGAAAATGTA has what recorded switch fluorescence ratio?
0.977

Item AAGTGGGAAT has what recorded switch fluorescence ratio?
1.02

Item CGAAGTTGAC has what recorded switch fluorescence ratio?
1.63

Item ATCTTTATAT has what recorded switch fluorescence ratio?
0.994

Item TTTCGTGGTG has what recorded switch fluorescence ratio?
0.997

Item TTGATCAGTA has what recorded switch fluorescence ratio?
1.02

Item TGGCGGCTTT has what recorded switch fluorescence ratio?
1.01

Item GGGGAGTGGG has what recorded switch fluorescence ratio?
0.989

Item AGTTCGTAGA has what recorded switch fluorescence ratio?
0.966

Item GCCATCAGAG has what recorded switch fluorescence ratio?
0.973

Item CGATCGGTAC has what recorded switch fluorescence ratio?
3.3

Item AACAAAGAGA has what recorded switch fluorescence ratio?
1.02

Item TGATGGGGAT has what recorded switch fluorescence ratio?
1.03

Item TCTCGCCAAG has what recorded switch fluorescence ratio?
1.06

Item CGGTTGGTGA has what recorded switch fluorescence ratio?
0.974

Item TTGGGTTTG has what recorded switch fluorescence ratio?
0.964

Item ATAATGATGT has what recorded switch fluorescence ratio?
0.97

Item ACGCGCGCGC has what recorded switch fluorescence ratio?
0.987

Item TCGTGCATGG has what recorded switch fluorescence ratio?
1.05

Item AAAGGGTATA has what recorded switch fluorescence ratio?
0.978

Item AAACTTGTAA has what recorded switch fluorescence ratio?
1.01

Item GGCTATTAAA has what recorded switch fluorescence ratio?
1.01

Item TTTGGAGTTG has what recorded switch fluorescence ratio?
0.987

Item AGGAGAGGGA has what recorded switch fluorescence ratio?
0.995

Item ATGCAGGGCT has what recorded switch fluorescence ratio?
0.962

Item TTCATCCGGT has what recorded switch fluorescence ratio?
1.52

Item TGTTATTTCA has what recorded switch fluorescence ratio?
1.02

Item ACCTGGGCGC has what recorded switch fluorescence ratio?
1.2

Item ATTGCTGCGA has what recorded switch fluorescence ratio?
1.01

Item TTGAGTGGTT has what recorded switch fluorescence ratio?
1.01

Item CAGGGGTTTA has what recorded switch fluorescence ratio?
1.03

Item ACTAACGGGA has what recorded switch fluorescence ratio?
1.39

Item AATGTGACAT has what recorded switch fluorescence ratio?
0.982

Item TTCTAGTCGT has what recorded switch fluorescence ratio?
0.971

Item TGATGAGATT has what recorded switch fluorescence ratio?
0.999

Item TGCACTTTTA has what recorded switch fluorescence ratio?
1.01

Item GGGCTGGGGT has what recorded switch fluorescence ratio?
0.997

Item GAGACATTGG has what recorded switch fluorescence ratio?
1

Item AATGGTCGGC has what recorded switch fluorescence ratio?
0.996

Item GCTGGGGGTT has what recorded switch fluorescence ratio?
0.996

Item GCGCCTTAAA has what recorded switch fluorescence ratio?
0.967

Item GTTTTGTTCC has what recorded switch fluorescence ratio?
1.02
